# target.entity: Fibroblast growth factor receptor 2 (Homo sapiens);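 further: reported figure is a mean percent inhibition of FGFR2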
# recorded.conditions: at 1 µM
quantity: inhibition (%)
Just the number in %, nothing appended.

Reference set (5 entries):
*Q* Requested read-out: inhibition. Entry: CS(=O)(=O)CCNCc1ccc(-c2ccc3ncnc(Nc4ccc(OCc5ccccc5)c(C(F)(F)F)c4)c3c2)o1
*A* 6.37

*Q* Requested read-out: inhibition. Entry: COc1ccc(-c2cc(-c3c[nH]nc3-c3ccccn3)ccn2)cc1
*A* 4.55

*Q* Requested read-out: inhibition. Entry: N#Cc1c(NC(=O)CN2CCOCC2)sc2c1CCCC2
*A* 7.88

*Q* Requested read-out: inhibition. Entry: Fc1ccc(-c2cc(-c3c[nH]nc3-c3ccccn3)ccn2)cc1
*A* 5.13

*Q* Requested read-out: inhibition. Entry: Nc1ncc(-c2cccc(S(N)(=O)=O)c2)c2scc(-c3ccc(F)c(Cl)c3)c12
*A* 32.8

Continuing:
*Q* Requested read-out: inhibition. Entry: CN1CCC(n2cnc(-c3ccc(F)cc3)c2-c2ccnc(N)n2)CC1
*A* 4.49

*Q* Requested read-out: inhibition. Entry: Cc1ccc(O)cc1Nc1ccnc2cc(-c3ccccn3)ccc12
*A* 43.2

*Q* Requested read-out: inhibition. Entry: CC(=O)Nc1cccc(C#Cc2cncnc2Nc2ccc(OCc3cccc(F)c3)c(Cl)c2)c1
*A* 5.67

*Q* Requested read-out: inhibition. Entry: CCCN(CCS(C)(=O)=O)Cc1ccc(-c2ccc3ncnc(Nc4ccc(OCc5cccc(F)c5)c(Cl)c4)c3c2)o1
*A* 2.2

*Q* Requested read-out: inhibition. Entry: CCOc1ccc2c(-c3ccnc(Nc4cccc(C(F)(F)F)c4)n3)cnn2n1
*A* 7.12

*Q* Requested read-out: inhibition. Entry: CN1CCC(n2cnc(-c3ccc(F)cc3)c2-c2ccnc(Nc3ccccc3)n2)CC1
*A* 4.35

*Q* Requested read-out: inhibition. Entry: CNC(=O)c1cccc(C#Cc2cncnc2Nc2ccc(OCc3cccc(F)c3)c(Cl)c2)c1
*A* 8.07

*Q* Requested read-out: inhibition. Entry: COc1ccc(CNC(=O)c2ccc(-c3cc(-c4nnc(C)o4)ccc3C)cc2)cc1
*A* 5.88

*Q* Requested read-out: inhibition. Entry: CCn1c(-c2nonc2N)nc2cnc(Oc3cccc(NC(=O)c4ccc(N(C)C)cc4)c3)cc21
*A* 3.9

*Q* Requested read-out: inhibition. Entry: CC(=O)NCc1cccc(C#Cc2cncnc2Nc2ccc(OCc3cccc(F)c3)c(Cl)c2)c1
*A* -0.08

*Q* Requested read-out: inhibition. Entry: COC(=O)c1sc(-n2cnc3cc(OC)c(OC)cc32)cc1OCc1ccccc1C(F)(F)F
*A* 23

====

# target.entity: Serine/threonine-protein kinase 26 (Homo sapiens);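 further: mean inhibition of MST4 kinase activity, reported from the GSK PKIS inhibitor-set screening panel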
# recorded.conditions: at 1 µM
quantity: inhibition (%)
Just the number in %, nothing appended.

Reference set (5 entries):
*Q* Requested read-out: inhibition. Entry: Nc1ncc(-c2cccc(S(N)(=O)=O)c2)c2scc(-c3ccc(F)c(Cl)c3)c12
*A* 2.44

*Q* Requested read-out: inhibition. Entry: O=S(=O)(CCNCc1ccc(-c2ccc3ncnc(Nc4ccc(OCc5cccc(F)c5)c(Cl)c4)c3c2)o1)c1ccccc1
*A* -0.49

*Q* Requested read-out: inhibition. Entry: CCOc1ccc2c(-c3ccnc(Nc4cccc(C(F)(F)F)c4)n3)cnn2n1
*A* 0.13

*Q* Requested read-out: inhibition. Entry: CC1=C(C(=O)Nc2cc(Cl)c3[nH]ncc3c2)C(c2ccc(C(F)(F)F)cc2)CC(=O)N1 (stereo unspecified)
*A* 8.39

*Q* Requested read-out: inhibition. Entry: COc1ccc(-c2oc3ncnc(N)c3c2-c2ccc(NC(=O)Nc3cc(C(F)(F)F)ccc3F)cc2)cc1
*A* 0.01

Continuing:
*Q* Requested read-out: inhibition. Entry: Nc1nc(-c2ccc(F)cc2)c(-c2ccc3ncccc3n2)s1
*A* 9.07

*Q* Requested read-out: inhibition. Entry: CC(C)COC(=O)c1ccc2c(c1)/C(=C/Nc1ccc(S(N)(=O)=O)cc1)C(=O)N2
*A* 10.7

// data source = ChEMBL document CHEMBL1961873
